Quick record: IC50, SIK3 (Homo sapiens, UniProt Q9Y2K2).
Measured Parameter: IC50 (nM)

{"Molecule": "Cc1cccc(C)c1OC(=O)N1C/C=C/COCc2cc(ccc2OCCN2CCC(O)CC2)Nc2nccc1n2 [I-4]", "Endpoint Unit": "nM", "Test Value": 409}
{"Molecule": "Cc1cccc(C)c1NC(=O)N1C/C=C\\COc2cccc(c2)Nc2cc1ncn2 [I-1]", "Endpoint Unit": "nM", "Test Value": 89.1}
{"Molecule": "Cc1cccc(C)c1OC(=O)N1C/C=C\\COCc2cc(ccc2OCCN2CCC(O)CC2)Nc2nccc1n2 [I-5]", "Endpoint Unit": "nM", "Test Value": 73.7}
{"Molecule": "CCN1CCN(CCOc2ccc3cc2COC/C=C/CN(C(=O)Oc2c(C)cccc2C)c2ccnc(n2)N3)CC1 [I-2]", "Endpoint Unit": "nM", "Test Value": 445}
